Below, each entry is listed with its recorded Number of mice that died on each day after infection: day 4.
Tested on: Escherichia coli ATCC 25922
Experiment Description: Oral formulations on mice with systemic bacterial infection
Assay type: in vivo, ICR mice
Condition Summary: 1 mg/kg gavage, three times a day for 7 days, n = 10
Non-standard residues stand in square brackets, D forms with d. Residues, ends and D or L forms follow the SMILES beside them. dPhe(3,4-Cl2) = N[C@H](Cc1ccc(Cl)c(Cl)c1)C(=O)O; dPhe(3,4-F2) = N[C@H](Cc1ccc(F)c(F)c1)C(=O)O; d2Nal = N[C@H](Cc1ccc2ccccc2c1)C(=O)O; d(hLeu) = CC(C)CC[C@@H](N)C(=O)O; dNle = CCCC[C@@H](N)C(=O)O

Completed entries (count: 4):
Compound	Reported Result
CC(=O)N[C@H](CCCCN)C(=O)N[C@H](CCCCN)C(=O)N[C@H](CC(C)C)C(=O)N[C@H](CC(C)C)C(=O)N[C@H](Cc1ccc(F)c(F)c1)C(=O)N[C@H](CCCNC(=N)N)C(=O)N[C@H](CC(C)C)C(=O)N[C@H](CCCCN)C(=O)N[C@H](Cc1ccc(F)c(F)c1)C(=O)N[C@H](CCCNC(=N)N)C(=O)N[C@H](CCCCN)C(N)=O [LV-25] (Ac-[dK][dK][dL][dL][dPhe(3,4-F2)][dR][dL][dK][dPhe(3,4-F2)][dR][dK]-NH2)	1 Mouse
CC(=O)N[C@H](CCCNC(=N)N)C(=O)N[C@H](CCCCN)C(=O)N[C@H](CCC(C)C)C(=O)N[C@H](CCC(C)C)C(=O)N[C@H](Cc1ccc2ccccc2c1)C(=O)N[C@H](CCCNC(=N)N)C(=O)N[C@H](CCC(C)C)C(=O)N[C@H](CCCCN)C(=O)N[C@H](Cc1ccc2ccccc2c1)C(=O)N[C@H](CCCNC(=N)N)C(=O)N[C@H](CCCCN)C(N)=O [LV-14] (Ac-[dR][dK][d(hLeu)][d(hLeu)][d2Nal][dR][d(hLeu)][dK][d2Nal][dR][dK]-NH2)	1 Mouse
CC(=O)N[C@H](CCCNC(=N)N)C(=O)N[C@H](CCCCN)C(=O)N[C@H](CC(C)C)C(=O)N[C@H](CC(C)C)C(=O)N[C@H](Cc1ccc(Cl)c(Cl)c1)C(=O)N[C@H](CCCCN)C(=O)N[C@H](CC(C)C)C(=O)N[C@H](CCCCN)C(=O)N[C@H](Cc1ccc(Cl)c(Cl)c1)C(=O)N[C@H](CCCCN)C(=O)N[C@H](CCCNC(=N)N)C(N)=O [LV-8] (Ac-[dR][dK][dL][dL][dPhe(3,4-Cl2)][dK][dL][dK][dPhe(3,4-Cl2)][dK][dR]-NH2)	2 Mouse
CCCC[C@@H](NC(=O)[C@@H](CCCCN)NC(=O)[C@@H](CCCNC(=N)N)NC(C)=O)C(=O)N[C@H](CCCC)C(=O)N[C@H](Cc1ccc2ccccc2c1)C(=O)N[C@H](CCCNC(=N)N)C(=O)N[C@H](CCCC)C(=O)N[C@H](CCCCN)C(=O)N[C@H](Cc1ccc2ccccc2c1)C(=O)N[C@H](CCCNC(=N)N)C(=O)N[C@H](CCCCN)C(N)=O [LV-12] (Ac-[dR][dK][dNle][dNle][d2Nal][dR][dNle][dK][d2Nal][dR][dK]-NH2)	0 Mouse

Query: Entry CC(=O)N[C@H](CCCCN)C(=O)N[C@H](CCCNC(=N)N)C(=O)N[C@H](CC(C)C)C(=O)N[C@H](CC(C)C)C(=O)N[C@H](Cc1ccc2ccccc2c1)C(=O)N[C@H](CCCCN)C(=O)N[C@H](CC(C)C)C(=O)N[C@H](CCCCN)C(=O)N[C@H](Cc1ccc2ccccc2c1)C(=O)N[C@H](CCCCN)C(=O)N[C@H](CCCNC(=N)N)C(N)=O [LV-23] (Ac-[dK][dR][dL][dL][d2Nal][dK][dL][dK][d2Nal][dK][dR]-NH2) , system Escherichia coli ATCC 25922: what Number of mice that died on each day after infection: day 4 was measured?
Reply: 2 Mouse
